Multi-source literature compilation: IC50 on Vascular endothelial growth factor receptor 2 (Homo sapiens).
Result Type: IC50 (nM)

> print(dat)
                                   compound                               target.desc  result.type  reported.measurement
1  Cc1cc(Nc2ncnn3cc(OCCN4CCC(F)(F)C4)c(C)c23)c(=O)n2c1C(=O)NC21CCCC1  Vascular endothelial growth factor receptor 2 (Homo sapiens)         IC50                     3
2  Cc1occ(Sc2nc3ccccc3c(=O)n2-c2ccccc2)c1C1=NN(C(N)=S)C(c2ccc(Cl)cc2)C1 (stereo not shown)  Vascular endothelial growth factor receptor 2 (Homo sapiens)         IC50                 46200
3  O=C1Nc2ccc(F)cc2/C1=N/NC(=O)c1ccc(Nc2ncnc3ccccc23)cc1  Vascular endothelial growth factor receptor 2 (Homo sapiens)         IC50                    76
4  CCS(=O)(=O)c1ccc2[nH]nc(C(=O)NNC(=O)NC34CC5CC(CC(C5)C3)C4)c2c1  Vascular endothelial growth factor receptor 2 (Homo sapiens)         IC50                    16
